Where these numbers come from: patent US20220402948A1

Target: EGFRΔ19del/T790M/C797S (Homo sapiens, UniProt P00533, T790M/C797S, form not given)
Sequence (P00533 with tags, fused parts or gaps DEL746-750/T790M/C797S, form open): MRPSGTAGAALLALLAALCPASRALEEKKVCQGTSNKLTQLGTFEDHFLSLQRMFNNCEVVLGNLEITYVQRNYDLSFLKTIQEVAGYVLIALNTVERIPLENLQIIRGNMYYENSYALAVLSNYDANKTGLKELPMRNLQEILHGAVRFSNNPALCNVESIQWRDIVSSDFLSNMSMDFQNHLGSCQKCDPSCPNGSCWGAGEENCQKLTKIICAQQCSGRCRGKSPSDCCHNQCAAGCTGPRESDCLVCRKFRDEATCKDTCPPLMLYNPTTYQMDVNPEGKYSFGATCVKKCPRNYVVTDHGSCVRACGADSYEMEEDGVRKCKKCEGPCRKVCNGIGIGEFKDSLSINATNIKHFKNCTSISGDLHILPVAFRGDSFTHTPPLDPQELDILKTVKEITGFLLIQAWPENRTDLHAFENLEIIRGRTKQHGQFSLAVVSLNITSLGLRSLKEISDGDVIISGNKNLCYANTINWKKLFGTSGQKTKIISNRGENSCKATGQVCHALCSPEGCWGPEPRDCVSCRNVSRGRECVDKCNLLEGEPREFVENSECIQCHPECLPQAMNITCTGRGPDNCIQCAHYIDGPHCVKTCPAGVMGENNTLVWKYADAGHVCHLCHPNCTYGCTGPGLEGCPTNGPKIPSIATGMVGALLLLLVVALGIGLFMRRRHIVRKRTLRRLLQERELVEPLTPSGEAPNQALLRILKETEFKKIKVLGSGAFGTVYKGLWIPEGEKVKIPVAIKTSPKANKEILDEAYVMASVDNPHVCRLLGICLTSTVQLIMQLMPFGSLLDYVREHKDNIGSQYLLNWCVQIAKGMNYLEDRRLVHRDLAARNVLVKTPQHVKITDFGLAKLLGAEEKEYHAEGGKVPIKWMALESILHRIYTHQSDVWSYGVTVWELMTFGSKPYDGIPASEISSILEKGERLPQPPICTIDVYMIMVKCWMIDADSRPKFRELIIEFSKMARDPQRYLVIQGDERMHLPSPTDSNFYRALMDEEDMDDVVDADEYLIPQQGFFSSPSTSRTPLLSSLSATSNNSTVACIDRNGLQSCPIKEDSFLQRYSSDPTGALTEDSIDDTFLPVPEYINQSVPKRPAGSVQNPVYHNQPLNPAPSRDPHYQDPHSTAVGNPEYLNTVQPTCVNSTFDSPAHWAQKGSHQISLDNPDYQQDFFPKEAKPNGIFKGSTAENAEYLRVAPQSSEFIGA
Experiment: EGFR Δ19del/T790M/C797S kinase test (mobility variation analysis, Caliper EZ Reader)
Conditions: kinase enzymatic activity, Table 1
outcome_measure: IC50 (nM)

(A) COc1cnn(-c2ccc(Nc3nc(Nc4cc(C)c(N5CCC(N6CCCCC6)CC5)cc4OC)ncc3Br)c(P(C)(C)=O)c2)c1 [Compound K-087]
(B) CCc1cc(Nc2ncc(Br)c(Nc3ccc(-n4cc(F)cn4)cc3P(C)(C)=O)n2)c(OC)cc1N1CCC(N2CCN(C)CC2)CC1 [Compound 44]
Task item: In the pair A and B , the larger recorded IC50 belongs to which? Answer by stating the label of the chosen item.
Reply: B
